Data credit: patent US20070021419A1

- experimental.target: CDK2/cyclin E (Homo sapiens, UniProt P24941)
- assay.text: Kinase assay, radioactive phosphate incorporation, CDK2/cyclin E
- particulars: 100 μM ATP, 30° C.; read-out: Kinase inhibition IC50 CDK2/cyclin E
Decide using IC50 alone. Strictly below 0.2 µM: 1. Equal to or above 0.2 µM: 0.

In [3]: df
Out[3]:
                                    compound  label
 0  O=[N+]([O-])c1cccc(Nc2nccc(-c3cccc(CN4CCOCC4)c3)n2)c1 [Compound 39]      1
 1  c1cc(Cn2cncn2)cc(-c2ccnc(Nc3ccc(N4CCOCC4)cc3)n2)c1 [Compound 32]      0
 2  OCc1cccc(Nc2nccc(-c3cccc(O)c3)n2)c1 [Compound 72]      1
 3  CNc1cccc(-c2ccnc(Nc3ccc(O)cc3)n2)c1 [Compound 14]      1
 4  COc1cccc(-c2ccnc(Nc3cccc(O)c3)n2)c1 [Compound 88]      1
 5  CC(=O)N(C)c1cccc(-c2ccnc(Nc3ccc(O)cc3)n2)c1 [Compound 12]      0
 6  Oc1cccc(-c2ccnc(Nc3cccc(F)c3)n2)c1 [Compound 57]      0
 7  O=[N+]([O-])c1cccc(-c2ccnc(Nc3cccc(O)c3)n2)c1 [Compound 64]      0
 8  COc1ccc(Nc2nccc(-c3cccc(Cn4ccnc4)c3)n2)cn1 [Compound 59]      0
 9  CC(=O)Nc1cccc(-c2ccnc(Nc3cccc([N+](=O)[O-])c3)n2)c1 [Compound 69]      0
10  COc1ccc(Nc2nccc(-c3cccc(CN(C)C)c3)n2)cn1 [Compound 83]      1
11  COc1ccc(Nc2nccc(-c3cccc(Cn4cncn4)c3)n2)cc1 [Compound 42]      0
12  CCN(C(C)=O)c1cccc(-c2ccnc(Nc3ccc(O)cc3)n2)c1 [Compound 10]      1
13  COc1ccc(Nc2nccc(-c3cccc(C#N)c3)n2)cn1 [Compound 51]      0
